# TBIL per record follows
Species: Rattus norvegicus
Assay: Open TG-GATES - Regimen: Single
Assay type: toxicity, organism-based, Sprague-Dawley
Set-up: regimen Single, gender Male, age 6 weeks
Conditions: in vivo, po, 1000 mg/kg, 24 h, tissue Plasma, route gavage, dose level High
Enter your answer as a number in mg/dL; do not include the unit.

molecule="NC(N)=Nc1nc(CSCCC(N)=NS(N)(=O)=O)cs1 [FAMOTIDINE]" value=0.1

The molecule identified as CC(C)OC(=O)C(C)(C)Oc1ccc(C(=O)c2ccc(Cl)cc2)cc1 [FENOFIBRATE] registered its TBIL at 0.048

Measured TBIL, CCOC(=O)CCC(=O)O[C@H]1[C@H](O[C@@H]2[C@@H](C)[C@H](O[C@H]3C[C@@](C)(OC)[C@@H](O)[C@H](C)O3)[C@@H](C)C(=O)O[C@H](CC)[C@@](C)(O)[C@H](O)[C@@H](C)C(=O)[C@H](C)C[C@@]2(C)O)O[C@H](C)C[C@@H]1N(C)C [ERYTHROMYCIN ETHYLSUCCINATE] : 0.024

Entry COC1=CC(=O)C[C@@H](C)[C@]12Oc1c(Cl)c(OC)cc(OC)c1C2=O [GRISEOFULVIN] , TBIL reported as 0.2

For reference, reported TBIL for COc1ccc2[nH]c([S+]([O-])Cc3ncc(C)c(OC)c3C)nc2c1 (stereo not given) [OMEPRAZOLE] stands at 0.2

====

Organism: Rattus norvegicus
Test: Open TG-GATES - Regimen: Daily Repeat
Assay type: toxicity, organism-based, Sprague-Dawley
Set-up: regimen Daily Repeat, gender Male, age 6 weeks
Conditions: in vivo, po, 1000 mg/kg, 72 h, tissue Blood, route gavage, dose level High, time 3 day
This section presents compounds with their documented PT values.
Quick note: give the figure in s, leave out the unit.

Guide cases for PT, answers given:
compound="NC(N)=Nc1nc(CSCCC(N)=NS(N)(=O)=O)cs1 [FAMOTIDINE]" recorded_metric=PT value=11.9
compound="COC1=CC(=O)C[C@@H](C)[C@]12Oc1c(Cl)c(OC)cc(OC)c1C2=O [GRISEOFULVIN]" recorded_metric=PT value=12.5
compound="CCOc1ccc(NC(=O)CC(C)O)cc1 (stereo not given) [BUCETIN]" recorded_metric=PT value=14.1
compound="COc1ccc2[nH]c([S+]([O-])Cc3ncc(C)c(OC)c3C)nc2c1 (stereo not given) [OMEPRAZOLE]" recorded_metric=PT value=12.1

get_value(item= CCOC(=O)CCC(=O)O[C@H]1[C@H](O[C@@H]2[C@@H](C)[C@H](O[C@H]3C[C@@](C)(OC)[C@@H](O)[C@H](C)O3)[C@@H](C)C(=O)O[C@H](CC)[C@@](C)(O)[C@H](O)[C@@H](C)C(=O)[C@H](C)C[C@@]2(C)O)O[C@H](C)C[C@@H]1N(C)C [ERYTHROMYCIN ETHYLSUCCINATE] , readout=PT) returns 15.7

====

Measured Bas by item
Species on record: Rattus norvegicus
Experiment: Open TG-GATES - Regimen: Daily Repeat
Assay type: toxicity, organism-based, Sprague-Dawley
Parameters: regimen Daily Repeat, gender Male, age 6 weeks
Settings: in vivo, po, 300 mg/kg, […], tissue Blood, route gavage, dose level Middle, time 14 day
Please state the figure in %; there is no need to write the unit.

Worked set:
molecule="COc1ccc2[nH]c([S+]([O-])Cc3ncc(C)c(OC)c3C)nc2c1 (stereo not given)" value=0
molecule=COC1=CC(=O)C[C@@H](C)[C@]12Oc1c(Cl)c(OC)cc(OC)c1C2=O value=0

Record summary for CCOc1ccc(NC(=O)CC(C)O)cc1 (stereo not given) : reported Bas = 0

Query CCOC(=O)CCC(=O)O[C@H]1[C@H](O[C@@H]2[C@@H](C)[C@H](O[C@H]3C[C@@](C)(OC)[C@@H](O)[C@H](C)O3)[C@@H](C)C(=O)O[C@H](CC)[C@@](C)(O)[C@H](O)[C@@H](C)C(=O)[C@H](C)C[C@@]2(C)O)O[C@H](C)C[C@@H]1N(C)C [ERYTHROMYCIN ETHYLSUCCINATE] yields Bas of 0

The molecule identified as `NC(N)=Nc1nc(CSCCC(N)=NS(N)(=O)=O)cs1` registered its Bas at 0
